Measured EC50 values are reported for all entries that follow.
System: HCV genotype 1b subgenomic replicon
Test: HCV replicon assay, genotype 1b subgenomic replicon (ET cell line, luciferase)
Type: cell-based
Conditions: Hepatitis C virus; genotype 1b replicon ET cell line, luciferase activity measured 48 hours later; read-out: Replicon 1B pEC50 (converted)
Method: Protocol for Testing and Data Analysis of Compounds in the HCV Replicon Assay Compounds were assayed for activity against HCV using the genotype 1a and 1b subgenomic replicon model systems. […] Luciferase activity was measured 48 hours later by adding a Steady glo reagent (Promega, Madison, Wis.). […] Under the same condition, cytotoxicity of the compounds was determined using cell titer glo (Promega, Madison, Ws). […]
Report the figure in nM without appending any unit label.

For COC(=O)N[C@H](C(=O)N1CCC[C@H]1c1ncc(-c2ccc(-c3ccc(-c4cnc([C@@H]5CC6(CN5C(=O)[C@@H](NC(=O)OC)C(C)C)OCCO6)[nH]4)cc3)cc2)[nH]1)C(C)C [Example 2] , what is its reported EC50?
0.00794

---

system: HCV genotype 1b subgenomic replicon; test: HCV replicon assay, genotype 1b subgenomic replicon (ET cell line, luciferase); format: cell-based; details: Hepatitis C virus; genotype 1b replicon ET cell line, luciferase activity measured 48 hours later; read-out: Replicon 1B pEC50 (converted)
test_readout: EC50 (pM)
Numbers only here, please. The scale is pM.

>>> data_value("COC(=O)N[C@H](C(=O)N1CCC[C@H]1c1ncc(-c2ccc(-c3ccc(-c4cnc([C@@H]5CC6(CN5C(=O)[C@@H](NC(=O)OC)C(C)C)OCCCO6)[nH]4)cc3)cc2)[nH]1)C(C)C [Example 6]")
7.94

Please look at the following molecule next.
For [2H]C1([2H])OC2(C[C@@H](c3ncc(-c4ccc(-c5ccc(-c6cnc([C@@H]7CCCN7C(=O)[C@@H](NC(=O)OC)C(C)C)[nH]6)cc5)cc4)[nH]3)N(C(=O)[C@@H](NC(=O)OC)C(C)C)C2)OC1([2H])[2H] [Example 9] , what is its reported EC50?
6.31

---

test system: HCV genotype 1b subgenomic replicon; test: HCV replicon assay, genotype 1b subgenomic replicon (ET cell line, luciferase); assay type: cell-based; settings: Hepatitis C virus; genotype 1b replicon ET cell line, luciferase activity measured 48 hours later; read-out: Replicon 1B pEC50 (converted)
test_readout: EC50 (nM)
Report only the number, with the unit nM understood.

Answered cases to consult:
>>> data_value("COC(=O)N[C@H](C(=O)N1CC2(C[C@H]1c1ncc(-c3ccc(-c4ccc(-c5cnc([C@@H]6CC7(CN6C(=O)[C@@H](NC(=O)OC)C(C)C)O[C@@H](C)C[C@H](C)O7)[nH]5)cc4)cc3)[nH]1)O[C@@H](C)C[C@H](C)O2)C(C)C (stereo partly shown)")
0.0158
>>> data_value("COC(=O)N[C@H](C(=O)N1CC2(CCOCC2)CC1c1ncc(-c2ccc(-c3ccc(-c4cnc([C@@H]5CCCN5C(=O)[C@@H](NC(=O)OC)C(C)C)[nH]4)cc3)cc2)[nH]1)C(C)C (stereo partly shown)")
0.0158
>>> data_value("COC(=O)N[C@@H](C)C(=O)N1C(c2nc(-c3ccc(-c4ccc(-c5cnc([C@@H]6CCCN6C(=O)[C@@H](NC(=O)OC)C(C)C)[nH]5)cc4)cc3)c[nH]2)CCC12CCC(F)(F)CC2 (stereo partly shown)")
0.01
>>> data_value("CNC(=O)N1CC2(CC(c3ncc(-c4ccc(-c5ccc(-c6cnc([C@@H]7CCCN7C(=O)[C@@H](NC(=O)OC)C(C)C)[nH]6)cc5)cc4)[nH]3)N(C(=O)[C@@H](NC(=O)OC)C(C)C)C2)C1 (stereo partly shown)")
0.251

# context switch: different compound, same EC50
Dear colleague, I am looking for the recorded EC50 of the following compound: COC(=O)N[C@H](C(=O)N1CC2(CCNCC2)CC1c1ncc(-c2ccc(-c3ccc(-c4cnc([C@@H]5CCCN5C(=O)[C@@H](NC(=O)OC)C(C)C)[nH]4)cc3)cc2)[nH]1)C(C)C (stereo partly shown)
1.58
